Values compiled from the NIST ThermoML archive (doi:10.1016/j.fluid.2013.11.028).

assay: wn = mass fraction of the nth substance listed; conditions: 318.15 K; 101 kPa; Liquid; Vibrating tube method; w1 = 0.3
property.name: mass density (kg/m3)

{"compound": "CN(C)CCCN(C)C [N,N,N',N'-tetramethyl-1,3-propanediamine] + O", "mass density [kg/m3]": 949.5}
{"compound": "NCCNCCN [di(2-aminoethyl)amine] + O", "mass density [kg/m3]": 1001.8}
{"compound": "CNCCCN [N-methyl-1,3-diaminopropane] + O", "mass density [kg/m3]": 971.3}
{"compound": "CN(C)CCN(C)C [N,N,N',N'-tetramethyl-1,2-diaminoethane] + O", "mass density [kg/m3]": 951.5}

----------
test: wn = mass fraction of the nth substance listed; conditions: 308.15 K; 101 kPa; Liquid; Vibrating tube method; w1 = 0.4
property.name: mass density (kg/m3)

{"compound": "CNCCCN [N-methyl-1,3-diaminopropane] + O", "mass density / kg/m3": 972.2}
{"compound": "CN(C)CCCN(C)C [N,N,N',N'-tetramethyl-1,3-propanediamine] + O", "mass density / kg/m3": 940.6}
{"compound": "CN(C)CCN(C)C [N,N,N',N'-tetramethyl-1,2-diaminoethane] + O", "mass density / kg/m3": 943.7}
{"compound": "NCCNCCN [di(2-aminoethyl)amine] + O", "mass density / kg/m3": 1013}

----------
test: wn = mass fraction of the nth substance listed; conditions: 313.15 K; 101 kPa; Liquid; Taylor dispersion method; w1 = 0.3
property.name: binary diffusion coefficient (m2/s)

{"compound": "CNCCCN [N-methyl-1,3-diaminopropane] + O", "unit.info": "m2/s", "value.measured": "8.25e-10"}
{"compound": "CN(C)CCN(C)C [N,N,N',N'-tetramethyl-1,2-diaminoethane] + O", "unit.info": "m2/s", "value.measured": "4.91e-10"}

P: CN(C)CCCN(C)C [N,N,N',N'-tetramethyl-1,3-propanediamine] + O
Q: NCCNCCN [di(2-aminoethyl)amine] + O
Exam item: Thinking about recorded binary diffusion coefficient values, which is higher, P or Q ? Use the label to indicate which entry you chose.
Marked response: Q
